System: IGROV1 ovarian
Assay details: NCI-60 one-dose screen, 48 h (100 = growth as untreated, 0 = no growth, -100 = all killed)
Cond: 10 µM unless noted
This is part of a sample that, as a whole, favours compounds with a hit. Of some 83,000 tested, about 20% had one in any assay.
Assign Satisfied whenever growth does not fall below 70%; assign Not satisfied whenever it does.

Compound: CC(=O)Cc1nsc(NC(=O)c2cc(-c3cc(Cl)ccc3Cl)oc2C)n1
Discrete label: Satisfied

Compound: O=C1c2c(c3c4cc(F)ccc4oc3c3[nH]c4ccccc4c23)C(=O)N1O
Discrete label: Not satisfied

Compound: COc1cccc(NC(=O)c2sc3nc(C)c(C(=O)c4ccccc4)cc3c2N)c1
Discrete label: Satisfied

Compound: CCN1CCN(c2nc(NNC(=O)c3ccc(OC)cc3)nc(N3CCN(C(c4ccccc4)c4ccccc4)CC3)n2)CC1
Discrete label: Satisfied

Compound: COc1cc(C(=O)/C=C/c2c(-c3cccs3)nc3sc(C)cn23)cc(OC)c1OC
Discrete label: Not satisfied

Compound: CCN(CC)CCCC(Nc1c2ccc(Cl)cc2nc2ccc(OC)cc12)c1ccncc1 (stereo not drawn)
Discrete label: Satisfied

Compound: Oc1ccc(C2OCCO2)c2cccnc12
Discrete label: Satisfied

Compound: CN1CCN(Cc2ccc(NC(=O)c3cncc(C#Cc4cnc(N)c5ccc(C#N)cc45)c3)cc2C(F)(F)F)CC1
Discrete label: Not satisfied
